target: TNFα / TNFα receptor (TNFα R1/Fc) (Homo sapiens, UniProt P01375); construct: purchased R&D Systems; assay: Inhibition of binding of TNFα to the TNFα receptor (plate ELISA competition); details: Table 2; read-out: Activity (IC50, inhibition of TNFα binding to TNFα R1/Fc)
Sequence (P01375 77-233 limits assumed, species assumed): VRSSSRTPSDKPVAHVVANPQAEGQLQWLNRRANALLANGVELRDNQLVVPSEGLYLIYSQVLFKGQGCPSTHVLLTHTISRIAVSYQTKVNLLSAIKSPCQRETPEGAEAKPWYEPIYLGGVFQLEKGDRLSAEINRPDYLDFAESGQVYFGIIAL
Numbered stars: 1 amine (or outer) side, 2 acyl side, 3 side chain; on linkers, the order of the positions; unused ones are H or OH. Bridge positions count the residues as written; N and C are the ends. Square brackets hold non-standard residues; d marks the D form. Peptide text beside a SMILES is read from it. Phe(4-(2-MeO-Ph)) = COc1ccccc1-c1ccc(C[C@H](N)C(=O)O)cc1; Phe(2,4-Cl2) = N[C@@H](Cc1ccc(Cl)cc1Cl)C(=O)O; Bip = N[C@@H](Cc1ccc(-c2ccccc2)cc1)C(=O)O; dBip = N[C@H](Cc1ccc(-c2ccccc2)cc1)C(=O)O; dPhe(4-NH2) = Nc1ccc(C[C@@H](N)C(=O)O)cc1; Phe(4-Br) = N[C@@H](Cc1ccc(Br)cc1)C(=O)O; Phe(4-NH2) = Nc1ccc(C[C@H](N)C(=O)O)cc1; dAla(2-furyl) = N[C@H](Cc1ccco1)C(=O)O; d(hPhe) = N[C@H](CCc1ccccc1)C(=O)O; d4Pal = N[C@H](Cc1ccncc1)C(=O)O; 2Thi = N[C@@H](Cc1cccs1)C(=O)O; d2Thi = N[C@H](Cc1cccs1)C(=O)O; Suc = O=C(CCC(=O)[*:2])[*:1]
IC50 for assorted compounds

Examples from the recorded data:
Consider NCCCC[C@H](NC(=O)[C@@H]1Cc2ccc(cc2)NC(=O)[C@H](O)[C@@H](O)C(=O)N[C@H](Cc2cccs2)C(=O)N[C@@H](Cc2ccc(-c3ccccc3)cc2)C(=O)N[C@H](Cc2ccccc2)C(=O)N1)C(=O)O [Compound 296] . Its measured IC50 is 30 to 100 µM

Consider O=C1COc2ccc(cc2)C[C@@H](C(=O)N[C@H](CO)C(=O)O)NC(=O)[C@H](CCc2ccccc2)NC(=O)[C@@H](Cc2ccc(-c3ccccc3)cc2)NC(=O)[C@H](Cc2ccc(-c3ccncc3)cc2)N1 [Compound 584] . Its measured IC50 is < 10 µM

Consider O=C1CCC(=O)N[C@H](Cc2cccs2)C(=O)N[C@@H](Cc2ccc(Cl)cc2Cl)C(=O)N[C@H](Cc2ccccc2)C(=O)N[C@H](C(=O)O)Cc2ccc(cc2)N1 [Compound 82] ([d2Thi][Phe(2,4-Cl2)][dF][Phe(4-NH2)]-OH; linker N-4 via Suc) . Its measured IC50 is 10 to 30 µM

Others:
Consider N[C@H]1CC(=O)N[C@H](Cc2cccs2)C(=O)N[C@@H](Cc2ccc(-c3ccccc3)cc2)C(=O)N[C@H](Cc2ccccc2)C(=O)N[C@H](C(=O)O)Cc2ccc(cc2)NC1=O [Compound 373] . Its measured IC50 is > 100 µM

Consider O=C1N[C@H](Cc2ccco2)C(=O)N[C@@H](C(=O)O)Cc2ccc(cc2)NC(=O)[C@H](O)[C@@H](O)C(=O)N[C@H](Cc2ccccc2)C(=O)N[C@H]1Cc1ccc(Br)cc1 [Compound 161] . Its measured IC50 is > 100 µM

Consider O=C(O)C[C@H](Cc1ccccc1)NC(=O)[C@@H]1Cc2ccc(cc2)OCC(=O)N[C@@H](Cc2cccs2)C(=O)N[C@H](Cc2ccc(-c3ccccc3)cc2)C(=O)N[C@@H](CCc2ccccc2)C(=O)N1 [Compound 485] . Its measured IC50 is 10 to 30 µM

Consider O=C1CCC(=O)N[C@@H](Cc2cccs2)C(=O)N[C@H](Cc2ccc(-c3ccccc3)cc2)C(=O)N[C@@H](Cc2ccccc2)C(=O)N[C@@H](C(=O)O)Cc2ccc(cc2)N1 [Compound 500] ([2Thi][dBip]F[dPhe(4-NH2)]-OH; linker N-4 via Suc) . Its measured IC50 is 10 to 30 µM

Consider O=C1CCC(=O)N[C@H](Cc2ccccc2)C(=O)N[C@@H](Cc2ccc(Br)cc2)C(=O)N[C@H](Cc2ccco2)C(=O)N[C@@H](C(=O)O)Cc2ccc(cc2)N1 [Compound 153] ([dF][Phe(4-Br)][dAla(2-furyl)][dPhe(4-NH2)]-OH; linker N-4 via Suc) . Its measured IC50 is > 100 µM

Consider O=C1CCC(=O)N[C@H](Cc2ccncc2)C(=O)N[C@@H](Cc2ccc(-c3ccccc3)cc2)C(=O)N[C@H](Cc2ccccc2)C(=O)N[C@H](C(=O)O)Cc2ccc(cc2)N1 [Compound 127] ([d4Pal][Bip][dF][Phe(4-NH2)]-OH; linker N-4 via Suc) . Its measured IC50 is > 100 µM

Consider COc1ccccc1-c1ccc(C[C@@H]2NC(=O)[C@@H](CCc3ccccc3)NC(=O)CCC(=O)Nc3ccc(cc3)C[C@@H](C(=O)O)NC(=O)[C@@H](Cc3ccccc3)NC2=O)cc1 [Compound 167] ([d(hPhe)][Phe(4-(2-MeO-Ph))][dF][Phe(4-NH2)]-OH; linker N-4 via Suc) . Its measured IC50 is > 100 µM

Consider O=C1COc2ccc(cc2)C[C@@H](C(=O)O)NC(=O)[C@@H]2CCCN2C(=O)[C@H](Cc2ccc(-c3ccccc3)cc2)NC(=O)[C@H](Cc2cccs2)N1 [Compound 255] . Its measured IC50 is > 100 µM
